assay: E. coli acrAB mutant growth effects, primary screen, E. coli filamentation inducers, strain DRC39, OD650, 48 h (AID 1179);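 note: screen aims at cell division blockers that make cells filament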; conditions: E. coli DRC39 delta-acrAB growth, higher = more signal, called active from +8 up or from −8 down
The source made the active and inactive calls.
Readout label: z-score

Request: Request the reported z-score associated with COCCOC(=O)N1C(=O)[C@@]2(c3cc(C#CCC(C(=O)OC)C(=O)OC)ccc31)[C@H](C(=O)N1CCN(c3ncccn3)CC1)[C@H]1C(=O)O[C@H](c3ccccc3)[C@H](c3ccccc3)N1[C@@H]2c1ccc(O)cc1
Response: 1.31 (inactive)

Request: # lookup: z-score of C=CC[C@@]12N=C(c3ccc(OCCCO)cc3)O[C@@H]1c1ccccc1CN(Cc1ccccc1)C2=O
Response: 0.485 (inactive)

Request: Can you look up the measured z-score of CCOC(=O)C[C@H]1[C@H](OC(=O)c2ccccc2-c2ccccc2)[C@@H](NC(=O)c2ccc(-c3ccccc3)cc2)c2cc(OCCCO)ccc2N1C(=O)Cc1ccc(OC)cc1 for me?
Response: -0.628 (inactive)

###

assay: modulators of S6 phosphorylation in cells, primary screen, cell-based, A549, cytoblot, luminescence, serum-stimulated (AID 1158); settings: A549 phospho-S6 cytoblot, 5 h, higher = more signal;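 note: serum-stimulated A549 lung adenocarcinoma cells; signal is phosphorylated S6 detected by cytoblot immunostaining with HRP secondary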
Readout label: z-score
// print number alone

Request: Data request, read-out z-score, for Cc1ccc(S[C@]2(C(=O)NC3CC3)CC(=O)N(Cc3cc(C(F)(F)F)cc(C(F)(F)F)c3)[C@@H]2c2ccc(CO)cc2)cc1
Response: 0.95

Request: Would you mind telling me what z-score value was observed for COc1ccc(C(O)C2C=CC3C(=O)N(C)C(=O)C3N2N2CCCCC2)cc1OCc1ccccc1 (configuration not stated) ?
Response: -1.16

Request: Which z-score reading was recorded for the compound O=C1C[C@@](C(=O)NCCN2CCOCC2)(c2ccc([N+](=O)[O-])cc2)[C@@H](c2ccc(CO)cc2)N1C1CCCCC1 ?
Response: -0.371

Request: # input compound: CCCCCCc1nc(-c2cc(C)c(OC)c(C)c2)cc2c1[Si](C(C)C)(C(C)C)O[C@H]2c1ccccc1 ; wanted: its z-score
Response: 0.561

Request: Which value of z-score has been reported for CO[C@H]1COC(=O)[C@H](C)NC(=O)CC=C[C@@H](C)[C@H](NS(=O)(=O)c2ccc(C)cc2)COC(=O)CC=C[C@@H]1C in the records?
Response: 0.356

Request: Find the recorded z-score belonging to Cc1ccc(S[C@]2(C(=O)O)CC(=O)N(Cc3ccccc3)[C@@H]2c2ccc(CO)cc2)cc1 and report it.
Response: 0.462

Request: Given the compound CCN1C(C)=C(C(=O)OC)[C@@H](c2ccccc2)N2C(=O)[C@@]3(C(=O)OC)O[C@@]12[C@@H]1C(=O)N(C)C(=O)[C@@H]13 , what is its reported z-score?
Response: 0.629

###

biological target: Homeobox protein Hox-A13 (Mus musculus); assay: inhibitors of HoxA13-DNA binding, primary screen, biochemical, fluorescence polarization, labeled oligonucleotide (AID 1185); conditions: 15 min, higher = more signal, called active from +8 up or from −8 down
Readout label: z-score
Enter the number alone.

Request: Query (compound): [N-]=[N+]=NCc1ccccc1C[C@@]1(C(=O)N2CCOCC2)N=C(c2ccc(OCCCO)cc2)O[C@@H]1c1ccccc1N=[N+]=[N-] ; field requested: z-score
Response: -0.217

Request: Recorded z-score of COC(=O)[C@@]1(Cc2ccccc2CN=[N+]=[N-])N=C(c2ccc(OCCCO)cc2)O[C@H]1c1ccccc1N=[N+]=[N-] , please.
Response: 0.683

Request: Using the record for CCOC(=O)C1=CC[C@@H](c2ccc(-c3ccc(OCc4ccccc4)cc3)c(OC)c2)N(S(=O)(=O)c2ccc(C)cc2)[C@H]1c1ccccc1 , report its z-score.
Response: -0.242

Request: Which measured z-score value corresponds to C=C(CCCC)C(=O)CC[C@@H](OC(=O)c1cccnc1)c1cccc(OCCO)c1 ?
Response: -3.79

Request: Given the compound C=CC[C@@]1(C(=O)N2CCOCC2)N=C(c2ccc(OCCCO)cc2)O[C@@H]1c1ccccc1 , what is its reported z-score?
Response: -5.67

Request: I am curious: what z-score value has been reported for COc1ccc([Si](C)(C)[C@H]2[C@H](CC(=O)N(CCO)Cc3ccccc3)O[C@@]3(C(=O)N(C)c4ccccc43)[C@@H]2C)cc1 ?
Response: -6.95

Request: Record request: z-score value, item CC1=C([C@H](O)CCc2ccccc2)[C@H](CO)[C@@H]2C(=O)N(Cc3ccccc3)C(=O)[C@@H]2C1
Response: -4.92
